- METHOD: Metabolic stability in mouse liver microsomes assessed as compound remaining at 5 uM after 60 mins
- Format: ADME, Microsome
- MEASUREMENT_PARAMETERS: read-out: Stability
OBSERVATION_TYPE: remaining at 1 h, 5 µM (%)
Supply the numeric figure in %, leaving out any unit text.

Bench note: what remaining at 1 h, 5 µM did CC[C@H](NC(=O)[C@@H]1C[C@@H](S(=O)(=O)c2ccccc2)CN1C(C)=O)C(=O)c1nc2ccccc2o1 show? 37

====

- ASSAYED_SYSTEM: Cytochrome P450 1A2 (Homo sapiens, UniProt P05177)
- Sequence (P05177 whole entry): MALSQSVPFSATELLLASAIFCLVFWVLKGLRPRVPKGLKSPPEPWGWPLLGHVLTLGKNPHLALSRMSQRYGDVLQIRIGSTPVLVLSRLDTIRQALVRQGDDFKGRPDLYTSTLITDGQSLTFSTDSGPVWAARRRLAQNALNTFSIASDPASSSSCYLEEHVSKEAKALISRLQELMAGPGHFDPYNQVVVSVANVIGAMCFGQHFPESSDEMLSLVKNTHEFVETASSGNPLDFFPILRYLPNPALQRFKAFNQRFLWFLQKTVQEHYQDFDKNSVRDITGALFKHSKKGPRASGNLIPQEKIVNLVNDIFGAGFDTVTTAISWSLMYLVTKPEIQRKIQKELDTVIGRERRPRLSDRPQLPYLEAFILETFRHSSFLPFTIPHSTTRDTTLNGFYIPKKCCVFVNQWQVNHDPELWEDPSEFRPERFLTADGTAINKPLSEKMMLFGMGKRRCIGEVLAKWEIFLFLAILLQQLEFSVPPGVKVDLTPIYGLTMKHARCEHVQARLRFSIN
pIC50: −log10 of the molar value.
OBSERVATION_TYPE: pIC50

Bench note: what pIC50 did CC[C@H](NC(=O)[C@@H]1C[C@@H](S(=O)(=O)c2ccccc2)CN1C(C)=O)C(=O)c1nc2ccccc2o1 show? < 4.70

Value source: ChEMBL document CHEMBL2380281
